System: MOLT-4 leukemia
Test: NCI-60 one-dose screen, 48 h (100 = growth as untreated, 0 = no growth, -100 = all killed)
Conditions: 10 µM unless noted
About 83,000 compounds went through this panel and 20% of them were active in at least one assay; those are over-represented in the sample as a whole.
Measure Name: growth (%)
All answers are understood in %, so give the number only.

For orientation, consider the following solved cases.
- Compound: "Nc1nc(-c2ccccn2)cc(-c2cc(-c3ccccn3)nc(N)n2)n1"
  Unit Spec: "%"
  growth: 106
- Compound: "S=c1nn[nH]n1C1CCCCC1"
  Unit Spec: "%"
  growth: 115
- Compound: "Nc1c(Cl)cc2c(c1Br)C(=O)c1ccccc1C2=O"
  Unit Spec: "%"
  growth: 87.8

In: GET /values?readout=growth&system=MOLT-4 leukemia&item= `O=C(O)C#Cc1ccc(Cl)cc1`
Out: 87.5

In: GET /values?readout=growth&system=MOLT-4 leukemia&item= `O=[N+]([O-])c1cccc(N=Cc2ccccc2)c1`
Out: 87.4

In: GET /values?readout=growth&system=MOLT-4 leukemia&item= CCCCCCC(C)CC1=C(O)c2ccccc2C(=O)C1=O (centres undefined)
Out: 26.6

In: GET /values?readout=growth&system=MOLT-4 leukemia&item= `Cc1nc(Nc2ccc(Cl)cc2)c2cnn(-c3ccccc3)c2n1`
Out: 106

In: GET /values?readout=growth&system=MOLT-4 leukemia&item= `CCC/C(=N/NC(N)=O)c1ccco1`
Out: 80.3

In: GET /values?readout=growth&system=MOLT-4 leukemia&item= CCOP(C)(=O)/C(Cc1ccc(OC)c(OC)c1)=N\O (centres undefined)
Out: 112

In: GET /values?readout=growth&system=MOLT-4 leukemia&item= `NCCSSC/C=C\CSSCCN`
Out: 98

====

Test system: OVCAR-8 ovarian
Assay: NCI-60 one-dose screen, 48 h (100 = growth as untreated, 0 = no growth, -100 = all killed)
Details: 10 µM unless noted
The panel holds about 83,000 compounds, 20% with a hit somewhere; the sample as a whole holds those more often.
A collection of compounds and their measured growth
All answers are understood in %, so give the number only.

For orientation, consider the following solved cases.
- Compound: "O=[N+]([O-])c1cccc(N=Cc2ccccc2)c1"
  growth, %: 93.1
- Compound: "CCC(C)(O)CCC(C)(O)CC (stereo unspecified)"
  growth, %: 102
- Compound: "O=C(O)C(Cc1ccc(OS(=O)(=O)Cc2ccccc2)cc1)NS(=O)(=O)Cc1ccccc1 (stereo unspecified)"
  growth, %: 105
- Compound: "O=C(O)COc1ccccc1F"
  growth, %: 116
- Compound: "CCN(C)c1ccccc1"
  growth, %: 98.2
- Compound: "COc1ccc2oc3c(ccc[n+]3C)c(=O)c2c1"
  growth, %: 96.5
- Compound: "c1ccc2c[n+](Cc3ccc4ccccc4n3)ccc2c1"
  growth, %: 69
- Compound: "COC(=O)c1nc(=S)[nH]c(C(=O)OC)c1C(=O)c1ccccc1"
  growth, %: 110
- Compound: "O=C1c2ccccc2C(c2ccccc2)C1c1ccccc1 (stereo unspecified)"
  growth, %: 103
- Compound: "CN(C)CC(CN(C)C)C(O)c1ccccc1 (stereo unspecified)"
  growth, %: 104

In: growth for `CCNCc1ccccc1` ?
Out: 100

In: growth for `COc1ccc(COC=O)cc1` ?
Out: 97.8

In: growth for CCN(CC)C(CC(=O)c1ccccc1)C(=O)c1ccccc1 (stereo unspecified) ?
Out: 96.6

====

A collection of compounds and their measured growth
System: SR leukemia
Assay: NCI-60 one-dose screen, 48 h (100 = growth as untreated, 0 = no growth, -100 = all killed)
Settings: 10 µM unless noted
About 83,000 compounds went through this panel and 20% of them were active in at least one assay; those are over-represented in the sample as a whole. Active and inactive are the calls of the source. The calls were made as follows: active = growth percent below 10; inactive = the rest.

- Compound: "O=C(c1ccc(Cl)cc1)C1C(c2ccccc2)C1[N+](=O)[O-] (stereo not given)"
  growth: "78% (inactive)"

In: growth for CN1C2C=CC(=O)C1C1C(=O)N(c3ccccc3)C(=O)C12 (stereo not given) ?
Out: 67.5% (inactive)

In: growth for O=C(O)C1CSCN1 (stereo not given) ?
Out: 97.4% (inactive)

In: growth for CN(C)CC(CN(C)C)C(O)c1ccccc1 (stereo not given) ?
Out: 111% (inactive)

In: growth for `CCOCCC(=O)O` ?
Out: 109% (inactive)

In: growth for `O=[N+]([O-])c1ccc(NC2CCCCC2)nc1` ?
Out: 98.1% (inactive)

In: growth for CC(C)=NOC(C)C(=O)O (stereo not given) ?
Out: 92% (inactive)

In: growth for `CCCC(=O)OCC(COC(=O)CCC)OC(=O)CCC` ?
Out: 105% (inactive)

In: growth for `CC(C)(C)OC(=O)CC1(O)CCCCC1` ?
Out: 105% (inactive)

In: growth for `COc1cc2c(cc1O)C(=O)CCCC2` ?
Out: 102% (inactive)

In: growth for `CC1=CC(=O)C=CC1=Nc1ccc(N(C)C)cc1` ?
Out: 29.3% (inactive)

In: growth for `Cc1cc(O)c(C(C)C)cc1N=O` ?
Out: 110% (inactive)

====

System: SNB-19 CNS
Experiment: NCI-60 one-dose screen, 48 h (100 = growth as untreated, 0 = no growth, -100 = all killed)
Conditions: 10 µM unless noted
About 83,000 compounds went through this panel and 20% of them were active in at least one assay; those are over-represented in the sample as a whole.
Measure Name: growth (%)
All answers are understood in %, so give the number only.

For orientation, consider the following solved cases.
- Molecule: "CC(C)(C)C1CCC(=NO)CC1 (stereo not drawn)"
  growth [%]: 96
- Molecule: "CCN(CC)C(=S)SCCO"
  growth [%]: 104
- Molecule: "O=P(O)(O)OC1C(OP(=O)(O)O)C(OP(=O)(O)O)C(OP(=O)(O)O)C(OP(=O)(O)O)C1OP(=O)(O)O.[Cu+2] (stereo not drawn)"
  growth [%]: 106
- Molecule: "COc1ccc(S(=O)(=O)c2ccc(F)cc2)cc1"
  growth [%]: 93.1

In: growth for O=C(N=C1C(=O)C2(CCCCC2)C2(N=C(c3ccccc3)OC2=O)C12CCCCC2)c1ccccc1 (stereo not drawn) ?
Out: 71.5

In: growth for `COc1ccc(CCN=Cc2ccc(Cl)cc2)cc1OC` ?
Out: 101

In: growth for `O=C(O)Cc1cc(=O)[nH]n(-c2ccccc2)c1=O` ?
Out: 119

In: growth for CN(C)CC(CN(C)C)C(O)c1ccccc1 (stereo not drawn) ?
Out: 109

In: growth for `COC(=O)c1nc(=S)[nH]c(C(=O)OC)c1C(=O)c1ccccc1` ?
Out: 102

In: growth for CCOP(C)(=O)/C(Cc1ccc(OC)c(OC)c1)=N\O (stereo not drawn) ?
Out: 105

In: growth for `O=[N+]([O-])c1cccc(N=Cc2ccccc2)c1` ?
Out: 118

In: growth for CCN(CC)C(CC(=O)c1ccccc1)C(=O)c1ccccc1 (stereo not drawn) ?
Out: 98.4

In: growth for `N#CC(=S)Nc1ccc(Cl)c(Cl)c1` ?
Out: 4.95

In: growth for `CC(=O)C[n+]1ccccc1Sc1ccc(Cl)cc1` ?
Out: 88.7

In: growth for `O=c1[nH]c(=O)c2[nH]c(=O)[nH]c2[nH]1` ?
Out: 103

====

Test system: SNB-75 CNS
Test: NCI-60 one-dose screen, 48 h (100 = growth as untreated, 0 = no growth, -100 = all killed)
Settings: 10 µM unless noted
The panel holds about 83,000 compounds, 20% with a hit somewhere; the sample as a whole holds those more often.
A collection of molecules and their measured growth
All answers are understood in %, so give the number only.

For orientation, consider the following solved cases.
- Molecule: "COc1ccc(CCN=Cc2ccc(Cl)cc2)cc1OC"
  Unit Spec: "%"
  Result Value: 127
- Molecule: "O=S(=O)(O)c1ccc2cc(O)ccc2c1"
  Unit Spec: "%"
  Result Value: 93.6
- Molecule: "CC(C)(C)C1CCC(=NO)CC1 (configuration not stated)"
  Unit Spec: "%"
  Result Value: 85.6
- Molecule: "COc1ccc(S(=O)(=O)c2ccc(F)cc2)cc1"
  Unit Spec: "%"
  Result Value: 101

In: growth for `CC(=O)c1cc2ccccc2o1` ?
Out: 101

In: growth for `COC(=O)c1nc(=S)[nH]c(C(=O)OC)c1C(=O)c1ccc(OC)cc1` ?
Out: 101

In: growth for `O=c1[nH]c(=S)[nH]n1C(=S)n1[nH]c(=S)[nH]c1=O` ?
Out: 92

====

A collection of molecules and their measured growth
Test system: IGROV1 ovarian
Assay: NCI-60 one-dose screen, 48 h (100 = growth as untreated, 0 = no growth, -100 = all killed)
Conditions: 10 µM unless noted
The panel holds about 83,000 compounds, 20% with a hit somewhere; the sample as a whole holds those more often. Activity calls are given as the source filed them. Rule for the calls: active = growth percent below 10; inactive = the rest.

For orientation, consider the following solved cases.
- Molecule: "OCc1ccccc1F"
  growth: "85.7% (inactive)"
- Molecule: "Cc1ccc(NC(=S)N/C=C(\\c2ccccc2)S(=O)Cc2ccccc2)c(C)c1 (stereo not drawn)"
  growth: "112% (inactive)"
- Molecule: "O=c1[nH]c(=S)[nH]n1C(=S)n1[nH]c(=S)[nH]c1=O"
  growth: "101% (inactive)"
- Molecule: "CC(=O)Nc1cscc1NC(C)=O"
  growth: "99.2% (inactive)"
- Molecule: "c1ccc2c[n+](Cc3ccc4ccccc4n3)ccc2c1"
  growth: "80.5% (inactive)"

Now for the molecule whose growth we want.
In: growth for `COc1ccc(CCl)c(C)c1OC` ?
Out: 104% (inactive)

The reported numbers originate from PubChem BioAssay (NCI).
